B1: C9orf9 (parent)
chain: TKHKCRQLTKASLKPRGCSKPPWR

Variants of: B1
Assay: protein stability index of a GFP-peptide fusion (GPS, HEK-293T) (PSI 1-6); higher = more stable;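 also: lentivirally expressed fusions sorted by FACS into six bins by GFP to DsRed ratio, PSI derived from sequencing read proportions per bin multiplied by bin number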
Conditions: c terminus: a fixed tail appended
protein stability index reference
API doc: respond with a numeric literal and nothing else, no unit.

Illustrative cases are given below, each with its answer.
Req: Hello, please tell me recorded protein stability index for this one: `P15W`
Resp: 2.22

Req: Please give the documented protein stability index of `K14E`
Resp: 3

Req: Give protein stability index for `P21Y`
Resp: 2.13

Req: State its protein stability index: `S12P`
Resp: 3.28

Now consider the entry below.
Req: Consider the variant `G17H` . State its measured protein stability index.
Resp: 2.76
